// data source = ChEMBL document CHEMBL4152386

# ASSAY NAME: Cmax in Wistar rat lung at 0.015 mg/kg, it administered as solution
# Format: ADME, organism-based
# Parameters: dose 0.015 mg/kg
# PROTOCOL CONDITIONS: inhaled or intranasal
Cmax reference
Enter your answer as a number in ng/g; do not include the unit.

SMILES	ASSAY RESULT
Cc1ccn2nc([C@H](C)Nc3ncnc(N)c3-c3ccc(O)c(F)c3)n(-c3ccccc3)c(=O)c12	700

Here is another compound to look at.
Reported Cmax ( `Cc1ccn2nc([C@H](C)Nc3ncnc4[nH]cc(-c5cc(NS(C)(=O)=O)cc6[nH]ccc56)c34)n(-c3ccccc3)c(=O)c12` ) = 3400

----------
# ASSAY NAME: Drug metabolism in human liver microsomes assessed as disappearance of parent compound at 5 uM after 30 mins in presence of NADPH by UPLC-MS/MS analysis
# Assay type: ADME, microsome
# PROTOCOL CONDITIONS: read-out: Drug metabolism
Reported metabolised at 0.5 h, 5 µM values follow for various compounds
For clarity, give the value followed by its unit.

SMILES	metabolised at 0.5 h, 5 µM
COc1cccc(-c2c[nH]c3ncnc(N[C@@H](C)c4nn5ccc(C)c5c(=O)n4-c4ccccc4)c23)c1O	99%

Sample `Cc1ccn2nc([C@H](C)Nc3ncnc4[nH]cc(-c5cccc6[nH]ccc56)c34)n(-c3ccccc3)c(=O)c12` ; metabolised at 0.5 h, 5 µM observed: 92%

The compound identified as `Cc1ccn2nc([C@H](C)Nc3ncnc(N)c3C(=O)Nc3cccc(O)c3)n(-c3ccccc3)c(=O)c12` registered its metabolised at 0.5 h, 5 µM at 60%

Record `Cc1ccn2nc([C@H](C)Nc3ncnc(N)c3-c3cnc(N)nc3)n(-c3ccccc3)c(=O)c12` , field metabolised at 0.5 h, 5 µM: 27%

----------
# ASSAY NAME: Oral bioavailability in Wistar rat at 1 mg/kg
# Assay type: ADME, organism-based
# PROTOCOL CONDITIONS: in vivo
MEASUREMENT TYPE: bioavailability (%)
Dear colleague, please return just the value in %, with no unit written.

SMILES	MEASUREMENT TYPE	ASSAY RESULT
Cc1ccn2nc([C@H](C)Nc3ncnc(N)c3-c3ccc(O)c(F)c3)n(-c3ccccc3)c(=O)c12	bioavailability	13

Now look at this entry.
Value of measured bioavailability for the entry `Cc1ccn2nc([C@H](C)Nc3ncnc4[nH]cc(-c5cc(NS(C)(=O)=O)cc6[nH]ccc56)c34)n(-c3ccccc3)c(=O)c12` : 1

----------
# TEST SYSTEM: PI3-kinase p110-delta/p85-alpha (Homo sapiens, UniProt O00329)
# Sequence (O00329 whole entry, one chain of several): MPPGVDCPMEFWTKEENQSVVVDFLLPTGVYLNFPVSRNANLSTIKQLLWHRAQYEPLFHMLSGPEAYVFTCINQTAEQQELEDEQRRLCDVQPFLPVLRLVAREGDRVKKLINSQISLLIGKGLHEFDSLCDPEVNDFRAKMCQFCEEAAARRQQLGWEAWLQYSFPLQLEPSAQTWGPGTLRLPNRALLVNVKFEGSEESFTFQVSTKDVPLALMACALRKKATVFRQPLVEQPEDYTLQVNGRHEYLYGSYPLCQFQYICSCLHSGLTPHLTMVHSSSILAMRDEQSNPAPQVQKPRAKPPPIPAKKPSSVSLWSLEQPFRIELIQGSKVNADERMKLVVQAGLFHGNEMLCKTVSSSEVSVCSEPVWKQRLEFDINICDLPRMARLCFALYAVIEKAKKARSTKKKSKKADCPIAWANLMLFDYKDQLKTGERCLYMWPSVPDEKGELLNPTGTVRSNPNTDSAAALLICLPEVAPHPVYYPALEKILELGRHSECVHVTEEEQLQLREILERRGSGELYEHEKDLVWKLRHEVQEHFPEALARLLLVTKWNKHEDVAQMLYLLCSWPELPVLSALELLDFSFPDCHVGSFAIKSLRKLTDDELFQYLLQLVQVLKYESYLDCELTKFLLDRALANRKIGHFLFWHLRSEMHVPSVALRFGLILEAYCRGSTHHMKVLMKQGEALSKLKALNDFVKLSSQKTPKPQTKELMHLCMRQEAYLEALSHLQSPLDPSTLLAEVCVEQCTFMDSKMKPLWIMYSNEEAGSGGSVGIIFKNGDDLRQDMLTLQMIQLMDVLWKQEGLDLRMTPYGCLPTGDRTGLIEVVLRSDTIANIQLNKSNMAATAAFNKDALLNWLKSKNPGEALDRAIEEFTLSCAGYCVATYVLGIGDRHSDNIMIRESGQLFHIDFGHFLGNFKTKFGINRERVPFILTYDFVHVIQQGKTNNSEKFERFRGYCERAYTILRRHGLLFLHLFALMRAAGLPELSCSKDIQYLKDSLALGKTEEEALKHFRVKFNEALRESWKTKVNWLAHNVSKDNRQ
pIC50: −log10 of the molar value.
Classification field: enter true for pIC50 values not below 9, false for values below it.

Worked cases, answers included:
SMILES	GROUP
Cc1ccn2nc([C@H](C)Nc3ncnc4[nH]cc(-c5cccc(F)c5O)c34)n(-c3ccccc3)c(=O)c12	false
Cc1ccn2nc([C@H](C)Nc3ncnc4[nH]cc(-c5cc(C(F)(F)F)ccc5O)c34)n(-c3ccccc3)c(=O)c12	true
Cc1ccn2nc([C@H](C)Nc3ncnc4[nH]cc(-c5cc(NS(C)(=O)=O)cc6[nH]ccc56)c34)n(-c3ccccc3)c(=O)c12	true
Cc1ccn2nc([C@H](C)Nc3ncnc4[nH]cc(-c5cc(O)cc(F)c5)c34)n(-c3ccccc3)c(=O)c12	true
Cc1ccn2nc([C@H](C)Nc3ncnc4[nH]cc(-c5cc(O)cc(NS(C)(=O)=O)c5)c34)n(-c3ccccc3)c(=O)c12	true

Please find the next compound below.
Ask: # bool: pIC50 of `Cc1ccn2nc([C@H](C)Nc3ncnc4[nH]cc(-c5ccc(O)cc5)c34)n(-c3ccccc3)c(=O)c12` >= 9
Result: true

----------
# ASSAY NAME: Drug metabolism in rat liver microsomes assessed as disappearance of parent compound at 5 uM after 30 mins in presence of NADPH by UPLC-MS/MS analysis
# Assay type: ADME, microsome
# PROTOCOL CONDITIONS: read-out: Drug metabolism
MEASUREMENT TYPE: metabolised at 0.5 h, 5 µM

SMILES	MEASUREMENT TYPE	ASSAY RESULT
Cc1ccn2nc([C@H](C)Nc3ncnc4[nH]cc(-c5cnn(C)c5)c34)n(-c3ccccc3)c(=O)c12	metabolised at 0.5 h, 5 µM	36%

Quick note, metabolised at 0.5 h, 5 µM for `Cc1ccn2nc([C@H](C)Nc3ncnc4[nH]cc(-c5cc(O)cc(NS(C)(=O)=O)c5)c34)n(-c3ccccc3)c(=O)c12` landed at 16%

Summary for this compound, `C[C@H](Nc1ncnc(N)c1C#N)c1nn2cccc2c(=O)n1-c1ccccc1` : metabolised at 0.5 h, 5 µM is 16%

Short answer for `Cc1ccn2nc([C@H](C)Nc3ncnc(N)c3-c3ccc4cc[nH]c4c3)n(-c3ccccc3)c(=O)c12` : metabolised at 0.5 h, 5 µM was 47%

Lookup result for `COc1cccc(-c2c[nH]c3ncnc(N[C@@H](C)c4nn5ccc(C)c5c(=O)n4-c4ccccc4)c23)c1O` ; measured metabolised at 0.5 h, 5 µM: 58%

// metabolised at 0.5 h, 5 µM lookup, compound = `Cc1ccn2nc([C@H](C)Nc3ncnc(N)c3-c3cccc(NS(C)(=O)=O)c3)n(-c3ccccc3)c(=O)c12` , result: 32%

`Cc1ccn2nc([C@H](C)Nc3ncnc(N)c3C(=O)Nc3cccc(O)c3)n(-c3ccccc3)c(=O)c12` has a reported metabolised at 0.5 h, 5 µM of 42%

For record `Cc1ccn2nc([C@H](C)Nc3ncnc4[nH]cc(-c5cccc(NS(C)(=O)=O)c5)c34)n(-c3ccccc3)c(=O)c12` the listed metabolised at 0.5 h, 5 µM is 23%

----------
# TEST SYSTEM: PI3K p110 beta/p85 alpha (Homo sapiens, UniProt P42338)
# Sequence (P27986 whole entry): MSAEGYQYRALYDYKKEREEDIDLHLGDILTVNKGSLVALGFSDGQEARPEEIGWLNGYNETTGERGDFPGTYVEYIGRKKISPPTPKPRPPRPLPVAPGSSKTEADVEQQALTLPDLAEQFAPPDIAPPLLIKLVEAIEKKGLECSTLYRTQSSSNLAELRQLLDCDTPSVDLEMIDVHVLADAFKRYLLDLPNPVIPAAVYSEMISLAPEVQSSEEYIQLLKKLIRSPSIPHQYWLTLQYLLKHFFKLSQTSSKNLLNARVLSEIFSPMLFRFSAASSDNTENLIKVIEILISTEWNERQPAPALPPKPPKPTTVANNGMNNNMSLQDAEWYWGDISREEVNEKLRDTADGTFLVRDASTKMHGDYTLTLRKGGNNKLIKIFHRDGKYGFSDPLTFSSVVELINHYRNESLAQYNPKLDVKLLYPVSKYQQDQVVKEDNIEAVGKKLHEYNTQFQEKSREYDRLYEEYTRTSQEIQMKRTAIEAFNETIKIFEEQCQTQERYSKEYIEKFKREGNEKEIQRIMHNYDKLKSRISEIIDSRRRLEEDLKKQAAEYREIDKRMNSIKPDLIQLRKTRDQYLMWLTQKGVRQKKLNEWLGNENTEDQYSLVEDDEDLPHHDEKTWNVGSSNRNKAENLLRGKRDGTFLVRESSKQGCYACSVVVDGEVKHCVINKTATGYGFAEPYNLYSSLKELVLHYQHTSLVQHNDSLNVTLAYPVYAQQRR
# Sequence (P42338 whole entry): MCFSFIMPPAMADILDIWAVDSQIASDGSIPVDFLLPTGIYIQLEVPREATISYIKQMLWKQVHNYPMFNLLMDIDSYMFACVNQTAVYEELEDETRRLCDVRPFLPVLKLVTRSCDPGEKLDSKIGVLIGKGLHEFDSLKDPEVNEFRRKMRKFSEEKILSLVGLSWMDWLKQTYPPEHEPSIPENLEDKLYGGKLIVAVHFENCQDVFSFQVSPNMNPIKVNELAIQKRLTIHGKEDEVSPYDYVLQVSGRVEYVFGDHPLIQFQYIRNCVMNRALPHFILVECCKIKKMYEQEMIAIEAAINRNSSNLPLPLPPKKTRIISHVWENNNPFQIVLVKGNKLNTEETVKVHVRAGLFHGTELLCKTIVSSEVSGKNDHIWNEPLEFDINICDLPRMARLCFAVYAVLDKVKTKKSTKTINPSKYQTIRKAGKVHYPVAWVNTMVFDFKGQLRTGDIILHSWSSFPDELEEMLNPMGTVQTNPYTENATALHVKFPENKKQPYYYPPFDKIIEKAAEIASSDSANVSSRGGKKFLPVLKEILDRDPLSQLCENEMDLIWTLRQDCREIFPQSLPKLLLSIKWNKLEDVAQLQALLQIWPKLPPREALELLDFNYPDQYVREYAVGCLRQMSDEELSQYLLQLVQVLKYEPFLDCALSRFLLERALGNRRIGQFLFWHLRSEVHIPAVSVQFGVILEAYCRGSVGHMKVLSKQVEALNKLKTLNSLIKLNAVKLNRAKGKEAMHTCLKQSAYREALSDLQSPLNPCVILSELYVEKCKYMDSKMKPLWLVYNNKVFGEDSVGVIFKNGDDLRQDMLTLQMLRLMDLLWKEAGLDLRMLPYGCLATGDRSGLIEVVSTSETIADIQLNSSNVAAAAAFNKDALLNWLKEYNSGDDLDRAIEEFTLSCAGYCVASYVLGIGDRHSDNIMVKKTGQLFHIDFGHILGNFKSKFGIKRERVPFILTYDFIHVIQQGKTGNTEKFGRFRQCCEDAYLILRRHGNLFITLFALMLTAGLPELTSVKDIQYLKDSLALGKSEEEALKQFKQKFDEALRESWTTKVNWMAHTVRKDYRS
MEASUREMENT TYPE: IC50 (µM)
# output: bare number, implied unit µM

The examples below pair each entry with its known result.
SMILES	IC50 / µM
Cc1ccn2nc([C@H](C)Nc3ncnc(N)c3-c3cc(O)cc(C(F)(F)F)c3)n(-c3ccccc3)c(=O)c12	0.01
Cc1ccn2nc([C@H](C)Nc3ncnc4[nH]cc(-c5cccc6[nH]ccc56)c34)n(-c3ccccc3)c(=O)c12	0.012
COc1cc(-c2c[nH]c3ncnc(N[C@@H](C)c4nn5ccc(C)c5c(=O)n4-c4ccccc4)c23)ccc1O	0.0013

Test item `Cc1ccn2nc([C@H](C)Nc3ncnc(N)c3Cc3cccc(O)c3)n(-c3ccccc3)c(=O)c12` ; PI3K p110 beta/p85 alpha (Homo sapiens, UniProt P42338); reported IC50 was 3

Note to self: IC50 of `Cc1ccn2nc([C@H](C)Nc3ncnc4[nH]cc(-c5cccc6cc[nH]c56)c34)n(-c3ccccc3)c(=O)c12` with PI3K p110 beta/p85 alpha (Homo sapiens, UniProt P42338) was 0.079

Entry `Cc1ccn2nc([C@H](C)Nc3ncnc(N)c3Sc3cccc(O)c3)n(-c3ccccc3)c(=O)c12` ; assay system PI3K p110 beta/p85 alpha (Homo sapiens, UniProt P42338); IC50 recorded at 0.95

The measured IC50 that `Cc1ccn2nc([C@H](C)Nc3ncnc4[nH]cc(-c5cn[nH]c5)c34)n(-c3ccccc3)c(=O)c12` showed for PI3K p110 beta/p85 alpha (Homo sapiens, UniProt P42338) is 0.0043

Entry `Cc1ccn2nc([C@H](C)Nc3ncnc(N)c3-c3ccc4oc(=O)[nH]c4c3)n(-c3ccccc3)c(=O)c12` , PI3K p110 beta/p85 alpha (Homo sapiens, UniProt P42338) data, IC50 value: 1.3

----------
# ASSAY NAME: Cmax in Wistar rat plasma at 0.3 mg/kg, it administered as suspension
# Format: ADME, organism-based
# Design: dose 0.3 mg/kg
# PROTOCOL CONDITIONS: inhaled or intranasal
MEASUREMENT TYPE: Cmax (ng/mL)
Write the number in ng/mL without appending the unit.

Value of Cmax reported for the molecule `Cc1ccn2nc([C@H](C)Nc3ncnc4[nH]cc(-c5cc(NS(C)(=O)=O)cc6[nH]ccc56)c34)n(-c3ccccc3)c(=O)c12` is 16400

----------
# ASSAY NAME: Apparent permeability of the compound at 20 uM by PAMPA assay
# Type: ADME
Each entry below carries its recorded Papp at 20 µM.
Answer with a number only, understood to be in nm/s.

SMILES	MEASUREMENT TYPE	U	ASSAY RESULT
Cc1ccn2nc([C@H](C)Nc3ncnc4[nH]cc(-c5cc(NS(C)(=O)=O)cc6[nH]ccc56)c34)n(-c3ccccc3)c(=O)c12	Papp at 20 µM	nm/s	2

get_value(item= `Cc1ccn2nc([C@H](C)Nc3ncnc(N)c3-c3ccc(O)c(F)c3)n(-c3ccccc3)c(=O)c12` , readout=Papp at 20 µM) returns 17
